Measured values drawn from the supplement of paper PMC11208160 for this set.

experiment: recombinant barcode read abundance after kanamycin selection (control-corrected) (log10(CPM+1)); higher = more efficient recombination; sequences stand for … in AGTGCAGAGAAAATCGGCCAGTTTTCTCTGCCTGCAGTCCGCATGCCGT…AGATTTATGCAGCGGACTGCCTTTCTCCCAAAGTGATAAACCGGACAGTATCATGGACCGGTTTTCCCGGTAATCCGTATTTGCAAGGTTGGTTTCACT; site = the 11-nt target;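 further: IS621 recombinase and bridge RNA in Escherichia coli cells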
Measurement kind: recombinant barcode read abundance (log10)
Just the number, please, no unit attached.

These recorded examples may help you get a feel for the data.
- Sequence entry: "TAGAACTCTTGGGTTCTAACCTGTTGCCC (site TAGAACTCTTG)"
  Numeric readout: 0.0327
- Sequence entry: "CGATCCACTTGGGTTCTAACCTGTTGCTG (site CGATCCACTCA)"
  Numeric readout: 0.483
- Sequence entry: "CGTACCTCTTGGGTTCTAACCTGTTGCTA (site CGTACCTCTCA)"
  Numeric readout: 0.123
- Sequence entry: "GCCGCGCCTTGGGTTCTAACCTGTTGCAG (site GCCGCGCCTCT)"
  Numeric readout: 0.116
- Sequence entry: "TAGCTCCCTTGGGTTCTAACCTGTTGCCC (site TAGCTCCCTGG)"
  Numeric readout: 0.872
- Sequence entry: "GTCAACCCTTGGGTTCTAACCTGTTGCTG (site GTCAAGCCTCA)"
  Numeric readout: 0.32

Prompt: Form field: reported recombinant barcode read abundance (log10) of CTAGGATCTTGGGTTCTAACCTGTTGCAT (site CTAGGATCTAT)
Response: 2.45

Prompt: Form field: reported recombinant barcode read abundance (log10) of GCCTATGCTTGGGTTCTAACCTGTTGCCT (site GCCTATGCTAG)
Response: 0.852

Prompt: Form field: reported recombinant barcode read abundance (log10) of CTGGAGACTTGGGTTCTAACCTGTTGCTT (site AGAACTCCTTC)
Response: 0.0253

Prompt: Form field: reported recombinant barcode read abundance (log10) of CTGAAGCCTTGGGTTCTAACCTGTTGCCT (site GTGAAGCCTAG)
Response: 0.386
